- subjectOfTest: T1, baboon EL (baboon)
- T1 construct: Heparin extract
- testName: Biacore; EL captured by anti-C2-tag Ab; bivalent fit
Entries and their kon values follow.
Write down the numeric answer in M⁻¹ s⁻¹ and omit the unit.

{"binder": "14E1 (antibody, mouse IgG1, V domains shown, mouse IgG1 from hybridoma) VH: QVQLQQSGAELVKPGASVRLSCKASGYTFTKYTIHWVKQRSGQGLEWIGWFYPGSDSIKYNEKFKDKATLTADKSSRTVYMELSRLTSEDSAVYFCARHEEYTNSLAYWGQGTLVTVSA VL: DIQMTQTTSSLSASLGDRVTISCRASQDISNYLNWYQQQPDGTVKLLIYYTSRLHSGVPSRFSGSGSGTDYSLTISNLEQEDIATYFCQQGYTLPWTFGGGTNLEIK", "unitInfo": "M⁻¹ s⁻¹", "kon": 150000}
{"binder": "53A11 (antibody, mouse IgG2a, V domains shown, mouse IgG2a from hybridoma; also called 53A11 (mouse mAb)) VH: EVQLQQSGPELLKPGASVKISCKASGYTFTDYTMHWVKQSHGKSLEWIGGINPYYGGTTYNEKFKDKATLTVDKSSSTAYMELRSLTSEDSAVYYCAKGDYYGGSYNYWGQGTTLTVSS VL: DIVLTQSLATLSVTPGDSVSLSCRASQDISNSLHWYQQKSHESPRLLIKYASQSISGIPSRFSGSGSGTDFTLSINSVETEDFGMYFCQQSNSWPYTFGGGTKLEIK", "unitInfo": "M⁻¹ s⁻¹", "kon": 170000}
{"binder": "16E7 (antibody, mouse IgG1, V domains shown, mouse IgG1 from hybridoma) VH: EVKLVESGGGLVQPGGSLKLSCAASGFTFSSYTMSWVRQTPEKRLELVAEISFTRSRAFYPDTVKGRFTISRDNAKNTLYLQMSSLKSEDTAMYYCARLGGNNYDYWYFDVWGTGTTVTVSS VL: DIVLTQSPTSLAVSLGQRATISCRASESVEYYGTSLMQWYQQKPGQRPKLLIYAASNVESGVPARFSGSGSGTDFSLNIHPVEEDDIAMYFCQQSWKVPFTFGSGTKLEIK", "unitInfo": "M⁻¹ s⁻¹", "kon": 53000}
{"binder": "13B3 (antibody, mouse IgG2a, V domains shown, mouse IgG2a from hybridoma; also called 13B3 (mouse mAb)) VH: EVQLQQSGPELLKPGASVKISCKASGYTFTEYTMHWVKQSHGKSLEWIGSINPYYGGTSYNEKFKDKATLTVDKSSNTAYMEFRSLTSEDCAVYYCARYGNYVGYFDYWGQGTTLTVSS VL: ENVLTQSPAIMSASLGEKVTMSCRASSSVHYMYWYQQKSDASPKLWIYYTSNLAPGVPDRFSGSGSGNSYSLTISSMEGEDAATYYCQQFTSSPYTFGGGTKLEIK", "unitInfo": "M⁻¹ s⁻¹", "kon": 61000}

Could you now look at the following binder, please?
*Q* Query: kon; subject: 23H8 (antibody, mouse IgG2a, V domains shown, mouse IgG2a from hybridoma; also called 23H8 (mouse mAb)) VH: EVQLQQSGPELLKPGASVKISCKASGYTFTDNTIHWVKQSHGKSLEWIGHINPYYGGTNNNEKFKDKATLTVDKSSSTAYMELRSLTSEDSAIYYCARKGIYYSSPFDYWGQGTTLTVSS VL: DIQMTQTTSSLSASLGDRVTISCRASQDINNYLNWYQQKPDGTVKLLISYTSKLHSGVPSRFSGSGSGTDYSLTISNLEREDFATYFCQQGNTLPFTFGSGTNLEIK
*A* 150000
